assay: NCI Yeast Anticancer Drug Screen. Data for the rad50 strain (AID 155);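 also: 0% = growth of vehicle-only cultures of the same strain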; settings: S. cerevisiae rad50 strain growth inhibition; at 50.0 µM; stronger effect = higher value
This is part of a sample that, as a whole, favours compounds with a hit. Of some 79,000 tested, about 15% had one in any assay.
Measured growth inhibition accompanies every entry in the list below.

>  <chemical.smiles>
Cn1c(N)nc(=O)c2[nH]cnc21

>  <growth inhibition [%]>
-4.3

$$$$
>  <chemical.smiles>
CCOc1ccc(N/N=C(\CCC(=O)O)C(=O)O)cc1

>  <growth inhibition [%]>
96

$$$$
>  <chemical.smiles>
NC(=O)c1cc(Br)cc(Br)c1O

>  <growth inhibition [%]>
62.2

$$$$
>  <chemical.smiles>
COc1ccc(NC(=O)C(=O)NO)c(OC)c1

>  <growth inhibition [%]>
90.8

$$$$
>  <chemical.smiles>
CN(C)/C=C1\CCc2ccc([N+](=O)[O-])cc2C1=O

>  <growth inhibition [%]>
6.9

$$$$
>  <chemical.smiles>
Cc1ccc(C(C)C)c2c1CN(CCN1COc3c(C(C)C)ccc(C)c3C1)CO2

>  <growth inhibition [%]>
-3.9

$$$$
>  <chemical.smiles>
CCn1c(-c2c(Cl)cc(O)cc2Cl)cc2c(Cl)cc(O)cc21

>  <growth inhibition [%]>
98.1

$$$$
